system: Plasmodium falciparum; assay: Primary screen in NF54 nanoGlo assay, in single point, at 2uM, 72h; type: functional, Erythrocyte; conditions: timepoint 72 hour
The campaign covered roughly 150,000 compounds. About 540 (0.36%) showed an effect of 50% or more. Only a selection was taken, and strong results are over-represented in it overall.
Test readout: Z score
Could you keep your reply to the number by itself?

INSERT INTO results (molecule, test_readout, assay_result) VALUES
  ('O=C(COC[C@H]1CCCCO1)NC(C1CC1)C1CC1', 'Z score', 1.05),
  ('CCn1nccc1-c1cnc2nc(C)nn2c1', 'Z score', 0.88),
  ('c1ccc(-c2noc(C3CCN(c4ccc5nncn5n4)CC3)n2)nc1', 'Z score', 2.08),
  ('CCc1cccc(C)c1NC(=O)Cn1cc(-c2ccccc2)c2ncn(CC)c(=O)c21', 'Z score', -0.57),
  ('Cc1cccnc1[C@H](C)NC(=O)CNC(=O)N(C)C', 'Z score', 1.68);

Record `c1cnc(NCc2cnc(N3CCCC3)s2)cn1` , field Z score: 0.38

Record `Cc1nn(C)c2nc3c(c(N)c12)C(=O)C[C@@H](c1ccccc1)C3` , field Z score: 1.9

Record `COc1ncnc2c1CN(C(=O)NCC1(Cc3ccccc3)CCC1)CC2` , field Z score: 1.68

Record `COc1ccc(CCn2c(N)c(-c3nc4ccccc4s3)c3nc(C#N)c(C#N)nc32)cc1OC` , field Z score: 0.86

Record `CC(C)c1cc(=O)[nH]c(-n2nc(C3CC3)cc2NC(=O)COc2ccc3ccccc3c2)n1` , field Z score: -12.73

Record `C[C@H](N)c1ccc(Nc2ncc3cc(-c4ccncc4)ccc3n2)cc1` , field Z score: -9.36

###

tested on: Plasmodium falciparum; experiment: Primary screen in NF54 nanoGlo assay, in single point, at 2uM, 72h; format: functional, Erythrocyte; conditions: timepoint 72 hour
In all, about 150,000 compounds went through this assay and about 540 (0.36%) showed an effect of 50% or more. The entries come from a sample that favours strong results as a whole.
Test readout: % Inhibition (%)
// return numeric value only (unit: %, not printed)

INSERT INTO measurements (structure_smiles, target_entity, test_readout, assay_result) VALUES
  ('Cc1ccc(OCC(=O)Nc2noc(-c3ccc(F)cc3)n2)cc1', 'Plasmodium falciparum', '% Inhibition', -8),
  ('CC(C)NC(=O)CN(C)CC(=O)Nc1cc(C2CCCC2)nn1-c1ccccc1', 'Plasmodium falciparum', '% Inhibition', 1),
  ('O=C(CCCc1ccccc1)Nc1cc(C2CC2)nn1-c1nc(-c2ccccc2)cc(=O)[nH]1', 'Plasmodium falciparum', '% Inhibition', 54),
  ('CC(=O)c1ccc(CNc2ncc(Cl)cn2)nc1C', 'Plasmodium falciparum', '% Inhibition', -16),
  ('Cc1cc(N)n(-c2nc(-c3ccccc3)cc(=O)[nH]2)n1', 'Plasmodium falciparum', '% Inhibition', 35),
  ('CC(C)(C)c1cc(NC(=O)CCCc2ccccc2)n([C@H]2CCS(=O)(=O)C2)n1', 'Plasmodium falciparum', '% Inhibition', -2),
  ('CCn1cc(NC(=O)c2cc(C3CC3)nc3onc(-c4cnn(CC)c4C)c23)c(C)n1', 'Plasmodium falciparum', '% Inhibition', 8),
  ('COCC1(CNC(=O)CNC(C)=O)CCCC1', 'Plasmodium falciparum', '% Inhibition', -5);

Record `Cc1ccc(Nc2ccc(N3CCNCC3)nn2)nc1` , field % Inhibition: 47

Record `CCc1cc(NC(=O)C2CN(C(=O)C3CCCCC3)C2)n(C)n1` , field % Inhibition: -13

Record `O=C(CCOc1ccc(F)c(Cl)c1)NCc1cccnc1` , field % Inhibition: 15

###

test system: Plasmodium falciparum; assay: Primary screen in NF54 nanoGlo assay, in single point, at 2uM, 72h; assay type: functional, Erythrocyte; settings: timepoint 72 hour
About 540 (0.36%) of roughly 150,000 compounds showed an effect of 50% or more. What follows is part of a selection rich in strong results, with near analogues and random picks from the rest.
Z score reference
Could you keep your reply to the number by itself?

Sample answers from the record:
INSERT INTO measurements (compound, assay_result) VALUES
  ('Cc1ccc(S(=O)(=O)c2c(NS(=O)(=O)c3ccccc3)n(CCc3ccccc3)c3nc4ccccc4nc23)cc1', -11.17),
  ('CC[C@H]1CCCCCN1C(=O)c1ccnc(OC2CCC2)c1', 0.5),
  ('O=c1[nH]c2cc(Cl)c(S(=O)(=O)Cl)cc2[nH]1', -7.82),
  ('Cc1ccc(S(=O)(=O)Nc2c(S(=O)(=O)c3ccc(C)cc3)c3nc4ccccc4nc3n2CCC(C)C)cc1', -10.94);

Reading of Z score for Cc1ccc(C(=O)Nc2cc3c4c(c2)C2CCCC2CN4CC2CCCC32)cc1 (centres undefined) with Plasmodium falciparum: -4.94

Reading of Z score for Cc1ccc(C(=O)Nc2cc(C(=O)N3CCCCC3C)cc(C(=O)N3CCCCC3C)c2)cc1 (centres undefined) with Plasmodium falciparum: -0.87

Reading of Z score for `O=C(CNC(=O)c1cnccn1)NCCc1c[nH]c2ccc(F)cc12` with Plasmodium falciparum: 0.67

Reading of Z score for `Cc1ccc(S(=O)(=O)Nc2c(S(=O)(=O)c3ccccc3)c3nc4ccccc4nc3n2CCc2ccccc2)cc1` with Plasmodium falciparum: -14.39

Reading of Z score for `C=CCn1ncc(-c2cn([C@@H](CC)c3cc(C)ccn3)nn2)c1C` with Plasmodium falciparum: -1.39

Reading of Z score for `Cc1cc2[nH]c(=O)[nH]c2cc1S(=O)(=O)NC1CCCCC1` with Plasmodium falciparum: 0.69

Reading of Z score for `COc1ccc(S(=O)(=O)c2c(N)n(Cc3ccc(C)cc3)c3nc4ccccc4nc23)cc1` with Plasmodium falciparum: 0.56

Reading of Z score for `COc1ccc2c(c1)[n+](CC(=O)c1ccc(-c3ccc(Br)cc3)cc1)c(CO)n2C` with Plasmodium falciparum: -5.57

Reading of Z score for `Cc1ccc(S(=O)(=O)c2c(NC(=O)c3ccco3)n(C3CCCCC3)c3nc4ccccc4nc23)cc1` with Plasmodium falciparum: 1.85

Reading of Z score for `O=c1[nH]c2cc(Br)c(S(=O)(=O)Nc3cccnc3)cc2[nH]1` with Plasmodium falciparum: -0.54

Reading of Z score for `Cc1ccc(C(=O)Nc2ccc(N3CCCN(C(=O)C4CCCC4)CC3)c(C(=O)N3CCCCC3)c2)cc1` with Plasmodium falciparum: 0.58

Reading of Z score for `Nc1c(S(=O)(=O)c2ccc(Cl)cc2)c2nc3ccccc3nc2n1Cc1ccc(Cl)cc1` with Plasmodium falciparum: 0.81

Reading of Z score for `Cc1ccncc1CN(C)C(=O)[C@]1(O)CCc2cc(Br)ccc2C1` with Plasmodium falciparum: 1.08

Reading of Z score for `Cc1ccc(S(=O)(=O)c2c(NS(=O)(=O)c3ccc(Cl)cc3)n(-c3cc(C)cc(C)c3)c3nc4ccccc4nc23)cc1` with Plasmodium falciparum: 0.5

Reading of Z score for `CCC(=O)Nc1c(S(=O)(=O)c2ccccc2)c2nc3ccccc3nc2n1[C@@H](C)c1ccccc1` with Plasmodium falciparum: 1.29

###

tested on: Plasmodium falciparum; test: Primary screen in NF54 nanoGlo assay, in single point, at 2uM, 72h; assay type: functional, Erythrocyte; conditions: timepoint 72 hour
The campaign covered roughly 150,000 compounds. About 540 (0.36%) showed an effect of 50% or more. The entries come from a sample that favours strong results as a whole.
// returns not met unless Z score is strictly below 0.2, in which case met

Past entries and their recorded results:
INSERT INTO measurements (compound, category_label) VALUES
  ('Cc1ccc(-c2cn[nH]c2[C@H]2CCCN(C(=O)C(C)(C)O)C2)cc1', 'not met'),
  ('CCn1cc(CN2CC[C@H]3C(=O)NCCCCCCN(Cc4ccncc4)[C@@H]3C2)c(C)n1', 'met'),
  ('COc1ccc(-c2cc(C(F)(F)F)nc(-n3nc(-c4cccc(OC)c4)c(Cl)c3-c3cccc(OC)c3)n2)cc1', 'met'),
  ('CCCc1cc(-c2nc(-c3ccc(-n4nc(C)cc4N)cc3)no2)n(C)n1', 'met'),
  ('CC[C@H](Oc1ccccc1C)c1nnc(C2(c3ccccc3)CC2)o1', 'not met');

Switching to the query record.
I wonder whether `CC(=O)Nc1c(-c2ccc(F)cc2)c(C)nn1-c1ccc(C(=O)Nc2nc(C)cs2)cc1` has Z score below 0.2. Can you tell?
met

###

system: Plasmodium falciparum; test: Primary screen in NF54 nanoGlo assay, in single point, at 2uM, 72h; a lower Z score goes with more inhibition; type: functional, Erythrocyte; details: timepoint 72 hour
Screen size: about 150,000 compounds; about 540 (0.36%) showed an effect of 50% or more. For the sample, strong results were picked, then their nearest neighbours and some compounds at random.
Parameter class (string): assigned from measured Z score. Ranges: small value (below -0.5), mid value (-0.5 to below 0.7), large value (0.7 or more)

Past entries and their recorded results:
INSERT INTO results (compound, target_entity, category_label) VALUES
  ('O=C(c1n[nH]c2c1CCc1ccccc1-2)N1CCCCCC1', 'Plasmodium falciparum', 'large value'),
  ('Cc1c(C(=O)NC[C@H]2CCCOC2)[nH]c2c(Cl)cccc12', 'Plasmodium falciparum', 'large value'),
  ('O=C(NCCN1CCCC1)c1ccc(-c2c(-c3ccc(F)cc3)ncn2C2CCCC2)o1', 'Plasmodium falciparum', 'small value'),
  ('O=C(O)[C@H]1CCCN(c2nc(-c3ccsc3)nc3ccccc23)C1', 'Plasmodium falciparum', 'large value'),
  ('Cc1ccccc1C(=O)N1C(C(=O)NC(C)c2ccccc2)COC12CCN(C(=O)CC(C)(C)C)CC2 (configuration not stated)', 'Plasmodium falciparum', 'mid value'),
  ('Cc1cccc(CN(Cc2cccc(C)n2)C[C@H]2CCCCO2)n1', 'Plasmodium falciparum', 'small value');

Any idea which band `CCN(Cc1csc(C)n1)C[C@H]1CCCCO1` is in?
mid value

Any idea which band `O=C(CCc1ccc(Cl)c(F)c1)N1CC(N2CCc3ccccc3C2)C1` is in?
large value

Any idea which band `Cc1onc(-c2ccccc2Cl)c1C(=O)NCC1(c2ccc(F)cc2)CCOCC1` is in?
large value

Any idea which band `CCS(=O)(=O)CCNC(=O)c1ccnc(C(C)C)n1` is in?
large value

Any idea which band `Cn1c(CN2CCN(c3ccnc4ccccc34)CC2)cc(=O)n(C)c1=O` is in?
small value

Any idea which band CC12CN(S(=O)(=O)c3ccc4c(c3)OCCO4)C3(C(=O)NCCc4ccccc4)CC1CCC23C (configuration not stated) is in?
large value
